Tested on: ZAK;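 also: KINOMEscan kinase panel screen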
Conditions: concentration: 1 μM, replicates: in singlicate; n = 1
What %Inh was measured for each of the following?
One number for each entry, in %.

These solved cases illustrate the format of a correct answer.
>>> df
                                   molecule  u  reading
0  O=C(Nc1n[nH]c2nc(-c3nccs3)c(Br)cc12)C1CCCC1 [SB-742609]  %        9
1  Cc1c(O)cccc1Nc1ccnc2ccc(C(F)(F)F)cc12.Cl [GW466413]  %        1
2  Cc1cc(-c2ccc3c(c2)CC[C@@H](N[C@@H](C)c2ccccc2)C3)cnc1N.Cl [GW412617]  %        1
3  O=C1NC(=O)C(N2CCc3ccccc32)=C1c1ccccc1Cl [SB-373598]  %       17
4  COc1cc2ncn(-c3cc(OCC4CCCO4)c(C(N)=O)s3)c2cc1OC (stereo not drawn) [GSK204607]  %        6

Give %Inh for each listed item.
1. CC(C)(C)c1ccc(C(=O)Nc2cn3cc(-c4cccnc4)ccc3n2)cc1
2. Cn1ccc2ncnc(Oc3ccc(NC(=O)Nc4ccccc4)cc3)c21
3. O=C(Nc1n[nH]c2nc(-c3nccs3)c(Br)cc12)C1CC1 [SB-742251]
4. CN(C)CCN(C)C(=O)c1cc(-c2ccncc2)c(-c2ccc(Cl)c(O)c2)o1.Cl.Cl [SB-710397]

Reply text:
1. 19
2. 0
3. 7
4. 41

Sourced from paper PMC5540273
